src = the supplement of paper PMC8728848

Reported glycan array binding signal (z-score) values for the following binders.
Biological target: Gal(b1-4)GlcNAc(b1-3)Gal(b1-4)GlcNAc(b1-3)GalNAc
Assay: glycan array binding signal (z-score within array); higher = stronger binding
Settings: glycan notation: IUPAC condensed, linker removed
Many of the other results were omitted from the sample, so the strongest signals are more common in it than they were.
Reply briefly: the number, and no unit.

1) CD34 (Homo sapiens), P28906 (protein) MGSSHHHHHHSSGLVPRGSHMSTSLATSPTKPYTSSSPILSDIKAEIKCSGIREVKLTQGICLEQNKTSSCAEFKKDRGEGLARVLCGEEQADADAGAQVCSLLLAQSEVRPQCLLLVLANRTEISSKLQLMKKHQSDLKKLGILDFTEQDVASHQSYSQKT | 1.97

Next item in the queue.
[in] I am curious: what glycan array binding signal (z-score) value has been reported for MGL6A (Homo sapiens) (protein) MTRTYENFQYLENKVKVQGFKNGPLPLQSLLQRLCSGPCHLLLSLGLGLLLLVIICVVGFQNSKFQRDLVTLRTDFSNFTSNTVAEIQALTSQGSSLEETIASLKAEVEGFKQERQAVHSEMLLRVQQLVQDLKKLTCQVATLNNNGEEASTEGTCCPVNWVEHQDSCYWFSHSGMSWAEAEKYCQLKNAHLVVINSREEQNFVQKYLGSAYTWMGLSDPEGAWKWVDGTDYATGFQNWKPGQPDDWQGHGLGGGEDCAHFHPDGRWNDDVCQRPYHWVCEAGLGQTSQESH ?
[out] -0.303
